# protocolDetails: Cysteine challenge stability of ^99mTc chelator peptides
# Assay type: physicochemical
# conditionsUsed: N1-N2-Cys triamide thiol chelators; cysteine challenge; 6 h
* marks the point of attachment. Bz = O=C(c1ccccc1)*
measuredQuantity: % Peptide Complexed to ^99mTc 6 h (%)
Give a bare numeral; the unit % is implied.

The examples below pair each entry with its known result.
substance | endpointUnit | % Peptide Complexed to ^99mTc 6 h
Ac-Tyr-Gly-Glu-Gly-Cys-Ala.amide (Ac-YGEGCA-NH2) | % | 73.3
Bz-Gly-Gly-Met-Cys-Ala.amide (Bz-GGMCA-NH2; SMILES CSCC[C@H](NC(=O)CNC(=O)CNC(=O)c1ccccc1)C(=O)N[C@@H](CS)C(=O)N[C@@H](C)C(N)=O) | % | 83.7
Ac-Tyr-Gly-Gly-(D)Orn-Cys-Ala.amide [GoC2] | % | 89.2
Bz-Gly-Gly-Glu-Cys-Ala.amide (Bz-GGECA-NH2; SMILES C[C@H](NC(=O)[C@H](CS)NC(=O)[C@H](CCC(=O)O)NC(=O)CNC(=O)CNC(=O)c1ccccc1)C(N)=O) | % | 80.3
Ac-Tyr-Gly-Met-Gly-Cys-Ala.amide (Ac-YGMGCA-NH2) | % | 85.9
Ac-Tyr-Gly-Gly-Orn-Cys-Ala.amide [GOC] | % | 86.1
Bz-Gly-Gly-Gln-Cys-Ala.amide (Bz-GGQCA-NH2; SMILES C[C@H](NC(=O)[C@H](CS)NC(=O)[C@H](CCC(N)=O)NC(=O)CNC(=O)CNC(=O)c1ccccc1)C(N)=O) | % | 82.4

Query substance follows.
q: // returns reported % Peptide Complexed to ^99mTc 6 h for input Ac-Tyr-Gly-Gly-His-Cys-Ala.amide (Ac-YGGHCA-NH2)
a: 70.9

====

Measured HPLC RCP 9 hours, listed per entry for reference.
# protocolDetails: HPLC radiochemical purity (RCP) stability of ^99mTc radiolabeled somatostatin peptides
# Type: physicochemical
# conditionsUsed: ^99mTc labeled somatostatin peptide, (β)Dap-N2-Cys chelator; 9 hours
Give a bare numeral; the unit % is implied.

The examples below pair each entry with its known result.
substance | HPLC RCP 9 hours, %
cyclo-[Tyr-(D)Trp-Lys-Thr-Phe-(N-Me)Hcy]-CH2CO.(β)Dap-Dab-Cys-Thr-Ser [—CH2CH2NH2] | 89.2
cyclo-[Tyr-(D)Trp-Lys-Thr-Phe-(N-Me)Hcy]-CH2CO.(β)Dap-(α)Dap-Cys-Thr-Ser [—CH2NH2] | 82.6
cyclo-[Tyr-(D)Trp-Lys-Thr-Phe-(N-Me)Hcy]-CH2CO.(β)Dap-Gly-Cys-Thr-Ser [—H] | 80.2
cyclo-[Tyr-(D)Trp-Lys-Thr-Phe-(N-Me)Hcy]-CH2CO.(β)Dap-Lys-Cys-Thr-Ser [—CH2CH2CH2CH2NH2] | 81.0
cyclo-[Tyr-(D)Trp-Lys-Thr-Phe-(N-Me)Hcy]-CH2CO.(β)Dap-Orn-Cys-Thr-Ser [—CH2CH2CH2NH2] | 94.9

Query substance follows.
q: // returns reported HPLC RCP 9 hours for input cyclo-[Tyr-(D)Trp-Lys-Thr-Phe-(N-Me)Hcy]-CH2CO.(β)Dap-Met-Cys-Thr-Ser [—CH2CH2SCH3]
a: 92.3
